The sequences listed here are annotated with their Normalised Input Resistance.
tested on: dorsal horn neurons; test: whole-cell recording of dorsal horn neurons in spinal cord slices from Chung models (Example 4); type: cell-based, rat; conditions: 1 μM; control = 100
Positions of bridges follow the written chain, without caps; N, C: chain ends. No end group written: not given here.

Looking up IDPSSEAPGHSCRSRPVESSC (listed as Homo sapiens) [SEQ11+LAT9993 Loop, peptide variant of formula (I)] , I see its Normalised Input Resistance listed as 85.6

get_value(item= CRSRPVESSCS (disulfide 1-10 (inferred); listed as Homo sapiens) [LAT9993 LoopS, cyclic peptide of formula (I), disulphide bond between the two cysteine residues] , readout=Normalised Input Resistance) returns 92.8

GET /value?item= SCRSRPVEASC (listed as Homo sapiens) [LAT9993 SLoop A9, peptide variant of formula (I)] &field=Normalised Input Resistance returns 134.0
